Test system: HT29 colon
assay_notes: NCI tumour cell line growth inhibition, 48 h; in the data active means GI50 below about 0.43 µM; inactive means the rest
In this exercise, the only acceptable responses are active, inactive

Illustrative cases are given below, each with its answer.
compound	assay_system	assigned_category
COc1ccc(C2CC(c3cccc(OC)c3)=NN2C(=O)c2cc(OC)c(OC)c(OC)c2)cc1 (centres undefined)	HT29 colon	inactive
CNC12C3C4C1C1C2C3C41C(=O)N[C@H](C(=O)N(C)[C@H](C[C@@H](OC(C)=O)c1nc(C(=O)N[C@@H](Cc2ccccc2)C[C@H](C)C(=O)OC)cs1)C(C)C)C1CC1 (some centres undefined)	HT29 colon	active
COc1ccc2c(c1)C(=O)c1c-2n(CCCN=[N+]=[N-])c(=O)c2cc(N)ccc12	HT29 colon	inactive
C=C1[C@@H](O)C[C@H]2C(C)(C)C[C@H](Cl)C[C@]2(C)[C@H]1C[C@H](O)[C@H]1CC(=O)NC1=O	HT29 colon	active
CCOC(=O)Nc1ccc(C(=O)/C=C/c2ccccc2)cc1	HT29 colon	inactive

# fetch the recorded call for CNC(C)[C@H]1CCC2C3CCC4C[C@@H](N(C)C(=O)c5ccccc5)CC[C@]4(C)C3CC[C@@]21C (some centres undefined) here
active

Quick one: C[n+]1cc2cc3c(cc2c2ccccc21)OCO3
inactive

Quick one: Cn1ccc2c3c(=O)cc[nH]c3ccc21
inactive

Quick one: O=c1oc2c(cc1-c1ccccc1)C(O)Oc1ccccc1-2 (centres undefined)
inactive
